system: Wolbachia pipientis; assay: Anti-Wolbachia Cell-Based Screen; assay type: functional; parameters: scale not given: in the data most compounds retested in dose-response had high values; settings: 5 µM
Among all 48,000 compounds or so, about 13,000 (27%) showed an effect of 50% or more. The list shows a part of the results.
readoutKind: Percent Effect
Hi, when you answer, please include the unit after the number. Thanks!

molecule	testedTarget	Percent Effect
CCc1nc(CNC2CCCc3c2cnn3CC)cs1 (stereo unspecified)	Wolbachia pipientis	1.475%

Need Percent Effect of Cc1ccccc1CC1(CO)CCCN(c2ncncc2C(C)C)C1 (stereo unspecified) , thanks. 2.064%

CN1CCN(c2ncnc3c2CCN(c2ncc(F)cn2)CC3)CC1.O=C(O)C(F)(F)F ? 6.683%
